Target: Oxytocin receptor (Homo sapiens) (UniProt P30559)
Sequence (P30559 whole entry, looked up): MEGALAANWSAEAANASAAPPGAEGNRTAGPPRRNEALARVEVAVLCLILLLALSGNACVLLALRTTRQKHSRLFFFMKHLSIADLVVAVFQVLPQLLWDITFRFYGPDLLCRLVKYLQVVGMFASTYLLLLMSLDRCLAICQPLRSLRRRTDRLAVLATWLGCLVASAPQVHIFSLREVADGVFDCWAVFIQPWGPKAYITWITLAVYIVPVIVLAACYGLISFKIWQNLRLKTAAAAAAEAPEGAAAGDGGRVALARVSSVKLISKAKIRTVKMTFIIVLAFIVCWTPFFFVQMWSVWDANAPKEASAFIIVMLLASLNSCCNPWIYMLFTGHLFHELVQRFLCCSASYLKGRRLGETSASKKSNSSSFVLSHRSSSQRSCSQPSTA
Test: oxytocin receptor activation, calcium signal – fluorescence, CHO-OTR cells, triplicate, counter-screen for V1R agonist project (AID 434969);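 also: peak over minimum fluorescence ratio within a 100 second FLIPR read; 0% = DMSO only wells and 100% = oxytocin high control wells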
Conditions: Fluo-8 calcium fluorescence, at 3 µM, hits give high values
The other results are listed elsewhere or left out.
result-type: activation (%)
Numbers only; they are read as %.

Guide cases for activation, answers given:
                                smiles_code  result_type  quantitative_result
0  CCN(CC)c1ccc2cc(C(N)=O)/c(=N\NC(=O)c3ccncc3)oc2c1   activation                 15.6
1   CCN(CC)c1ccc(/C=N/NC(=O)c2cnccn2)c(O)c1   activation                  9.1
2  CC1(C)S[C@@H]2[C@H](N=CN3CCCCCC3)C(=O)N2[C@H]1C(=O)O   activation                 0.49

Ask: # returns recorded activation (system: Oxytocin receptor (Homo sapiens) (UniProt P30559)) for O=C(CN1CCN(c2cccc(Cl)c2)CC1)Nc1ccc(S(=O)(=O)N2CCOCC2)cc1
Reply: 5.65

Ask: Thanks! And Fc1cccc(Cl)c1COc1ccc(-c2nnco2)cc1 ?
Reply: -0.58

Ask: Here is the next compound: O=c1c2cc(Br)ccc2nc(-c2cccc(Cl)c2)n1O
Reply: 15.4
